# experimental-target: Testis-specific serine/threonine-protein kinase 2 (Homo sapiens, UniProt Q96PF2)
# Sequence (Q96PF2 whole entry): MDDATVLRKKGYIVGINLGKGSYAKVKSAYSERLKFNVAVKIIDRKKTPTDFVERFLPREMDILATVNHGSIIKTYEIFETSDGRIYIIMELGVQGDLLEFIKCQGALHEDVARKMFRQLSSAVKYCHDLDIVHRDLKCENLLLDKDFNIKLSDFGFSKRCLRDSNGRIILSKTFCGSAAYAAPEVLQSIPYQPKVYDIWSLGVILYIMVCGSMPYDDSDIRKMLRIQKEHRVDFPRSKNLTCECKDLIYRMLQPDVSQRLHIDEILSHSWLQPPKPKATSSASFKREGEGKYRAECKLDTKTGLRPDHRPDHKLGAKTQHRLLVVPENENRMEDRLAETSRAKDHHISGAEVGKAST
pIC50: −log10 of the molar value.
measure-name: pIC50

Enquiry: Identify measured pIC50 corresponding to `N#CCNC(=O)c1ccc(-c2ccnc(Nc3ccc(N4CCOCC4)cc3)n2)cc1`
Return: < 6.00

Origin of the recorded values: ChEMBL document CHEMBL5705885
